Tested on: Diabrotica balteata (rootworm larvae)
run.description: Residual test on rootworm larvae (DB), Filter paper/maize seed, mortality
Assay type: in vivo
applied.conditions: 48 h, 500 ppm, residual, 2 days, read-out: DB grading of mortality
measured.metric: mortality at 500 ppm

Example cases with answers are listed next.
compound	test.system	mortality at 500 ppm
CCOCc1c(F)c(F)c(COC(=O)C(c2cnc(C(C)(C)C)nc2)C(C)(C)C)c(OCC)c1F (racemic)	Diabrotica balteata (rootworm larvae)	< 50%
COCc1c(F)c(F)c(COC(=O)C(c2cnc(-c3ccccc3)nc2)C(C)(C)C)c(F)c1F (racemic)	Diabrotica balteata (rootworm larvae)	50 to 79%
CC(C)c1ncc([C@H](C(=O)O[C@H](C)c2cccc(Oc3ccccc3)n2)C(C)(C)C)cn1 (racemic)	Diabrotica balteata (rootworm larvae)	< 50%

mortality at 500 ppm in this record for CCOCc1c(F)c(F)c(COC(=O)C(c2cnc(C(C)(C)C)nc2)C(C)(C)C)c(OC)c1F (racemic) : < 50%
